# credit: patent US20090298765A1

Biological target: human OT7T175 (metastin receptor) (human, UniProt Q969F8 1-398)
Sequence (Q969F8 whole entry L364H): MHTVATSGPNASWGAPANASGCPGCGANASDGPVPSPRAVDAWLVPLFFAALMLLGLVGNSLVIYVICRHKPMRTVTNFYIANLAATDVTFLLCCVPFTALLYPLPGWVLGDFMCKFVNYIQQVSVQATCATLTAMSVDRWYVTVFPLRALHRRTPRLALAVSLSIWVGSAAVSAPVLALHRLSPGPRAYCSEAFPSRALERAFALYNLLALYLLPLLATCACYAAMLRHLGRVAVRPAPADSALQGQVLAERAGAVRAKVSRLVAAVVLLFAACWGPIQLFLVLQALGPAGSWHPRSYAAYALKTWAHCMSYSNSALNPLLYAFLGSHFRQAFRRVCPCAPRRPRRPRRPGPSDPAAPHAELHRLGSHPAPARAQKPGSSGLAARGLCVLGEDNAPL
Test: cell-based or functional assay
Non-standard residues stand in square brackets, D forms with d. No end group written: not given here. Phe(F5) = N[C@@H](Cc1c(F)c(F)c(F)c(F)c1F)C(=O)O
Recorded Ca ion level-increasing activity (FLIPR) values for a group of binders are listed next.

Please review the following examples before continuing.
{"columns": ["binder", "result"],
 "data": [
  ["YNWNSFGXRF (Nle8; C-terminal amide, also called Compound No. 105) [[Nle8]MS10]", "1 x Metastin (1-54)"],
  ["YNWNSFGLXF (Har9; C-terminal amide, also called Compound No. 97) [[Har9]MS10]", "10 x Metastin (1-54)"]
]}

IN: I am curious: what Ca ion level-increasing activity (FLIPR) value has been reported for YNWNSFGLR[Phe(F5)]-NH2 (also called Compound No. 111) [[Phe(F5)10]MS10] ?
OUT: 3 x Metastin (1-54)
